Test system: CRL2351 human breast cancer
Experiment: SRB assay (inhibition of cell proliferation)
Assay type: cell-based
Details: Homo sapiens, CRL2351 human breast cancer cells; summary table; read-out: IC50 [μM} CRL2351
Observed Property: IC50 (µM)
Answers are plain numbers, in µM.

Examples with their reported IC50 follow.
* O=C(O)/C(Cc1ccc([N+](=O)[O-])cc1)=N\Nc1nc(-c2ccc(Cl)c(Cl)c2)cs1 | 15
* COc1ccc(-c2nc(NN=C(Cc3ccccc3[N+](=O)[O-])C(=O)O)sc2-c2ccc(OC)c(OC)c2)cc1 | 4
* COc1ccc(-c2sc(N/N=C(/Cc3ccccc3[N+](=O)[O-])C(=O)O)nc2-c2ccc(OC(C)C)cc2)cc1 [KY-599S] | 8.7
* O=C(O)/C(Cc1ccc(C(F)(F)F)cc1)=N/Nc1nc(-c2ccc(Cl)c(Cl)c2)cs1 | 3
* COc1ccc(-c2nc(N/N=C(\Cc3ccccc3[N+](=O)[O-])C(=O)O)sc2-c2ccc(I)cc2)cc1 [KY-613S] | 9.5
* [N-]=[N+]=NCCOc1ccc(-c2csc(N/N=C(/Cc3ccccc3[N+](=O)[O-])C(=O)O)n2)cc1 | 5
* COc1ccc(-c2sc(N/N=C(\Cc3ccccc3[N+](=O)[O-])C(=O)O)nc2-c2ccc(SC)cc2)cc1 | 15.5
* O=C(O)/C(Cc1ccccc1[N+](=O)[O-])=N/Nc1nc2c(s1)COc1cc(Cl)c(Cl)cc1-2 [PC-204F] | 2

// for each molecule below, give its IC50
1. N.O=C(O)/C(Cn1cc(-c2ccccn2)nn1)=N/Nc1nc(-c2ccc(Cl)c(Cl)c2)cs1
2. O=C(O)C(Cc1ccccc1[N+](=O)[O-])=NNc1nc(-c2ccc(Cl)c(Cl)c2)cs1 [Compound 4EGI-1, reference compound]
3. O=C(O)/C(Cc1ccccc1[N+](=O)[O-])=N\Nc1nc2c(s1)CSc1cc(Cl)c(Cl)cc1-2 [PC-218S]
4. Cc1ccc(-c2nc(NN=C(Cc3ccccc3[N+](=O)[O-])C(=O)O)sc2-c2ccc(Cl)cc2)cc1 [KY-351PR]
5. COc1ccc(-c2nc(NN=C(Cc3ccccc3[N+](=O)[O-])C(=O)O)sc2-c2ccc(Cl)c(Cl)c2)cc1

[reply]
[9, 5, 5.5, 2.5, 16]
